measured on: high affinity tryptophan transporter
test name: Competition of unlabeled substrates with radiolabeled tryptophan uptake, high-affinity system, macrophages
recorded conditions: radiolabeled tryptophan 125 nM; read-out: Ki (fit to Equation 1, single-system model)
metric: pKi
Field pKi (float): negative decimal logarithm of the concentration in molar.

// query pKi value for entry N[C@@H](Cc1c[nH]c2ccccc12)C(=O)O
6.44
